Recorded activity change, negative = inhibition values for a group of compounds are listed next.
# Test details: AP1 Signaling Pathway (AID 357);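 also: ME-180 reporter cells stimulated with EGF at its EC50 level; % is scaled to controls: 0 for no effect and ±100 for the full control effect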
# Condition: ME-180 (cervical carcinoma) AP-1-bla reporter, EGF-induced, beta-lactamase ratio, 5 h; at 7.69 µM (top of the series) unless noted
Results filed as inconclusive are left out. Active and inactive are the calls of the source. Calls follow the shape of the dose curve; as a rule, active = well fitted curve in either direction with a large enough effect (not every such curve was filed as active); inconclusive = small, poorly fitted or top-dose-only effect, or another doubt; inactive = flat fitted curve, though single readings scatter.

O=C(O)c1ccccc1N[C@H](c1ccccc1)c1ccc2cccnc2c1O ... 0.796% (inactive)
C[C@@H](N)[C@@H](C)Cc1ccccc1 ... 10.1% (inactive)
Cc1[nH]c2ccccc2c1-c1cc(-c2cc(-c3c(C)[nH]c4ccccc34)on2)no1 ... 5.07% (inactive)
COc1ccc2c(c1)Cc1cc(N=[N+]([O-])c3ccc4c(c3)Cc3cc(OC)ccc3-4)ccc1-2 ... -9.92% (inactive)
Nc1nc(SCc2ccccc2)c2ncn(Cc3ccccc3)c2n1 ... -24.3% (inactive)
Cc1ccc(C)c(C(=N)c2ccccc2Cc2ccccc2)c1 ... 1.26% (inactive)
NCC[C@H]1CCC[C@H](CCN)N1 ... 2.44% [at 38 µM] (inactive)
O=C(O)C[C@H](Sc1ccccc1)c1ccccc1 ... 7.59% (inactive)
Cc1c(C(=O)O)nc(/C=C\C(=O)O)[nH]c1=O ... 11.1% (inactive)
O=C1c2ccccc2N[C@H](c2cc(Cl)cc(Cl)c2O)N1CCc1ccccn1 ... -16.9% (inactive)

In plain terms, "Cc1ccc(S(=O)(=O)N2CCC(C(=O)O)(c3ccccc3)CC2)cc1" has a documented activity change, negative = inhibition of 0.56% (inactive)

The compound listed as "NS(=O)(=O)c1ccc(NCc2cnc3ccccc3c2)cc1" has a reported activity change, negative = inhibition of -2.59% (inactive)

Looking up "c1nnc(NCNc2nncs2)s1" , I found its activity change, negative = inhibition recorded as 12.8% (inactive)

Value of activity change, negative = inhibition reported for the compound O=C1C2C3C=CC(C2C(=O)N1CN1CCOCC1)C1C2C(=O)N(CN4CCOCC4)C(=O)C2C31 (configuration not stated) is 1.83% (inactive)

The measured activity change, negative = inhibition associated with "Oc1cc(O)c2c(c1)O[C@H](c1ccc(O)c(O)c1)[C@@H](O)[C@@H]2c1c(O)cc(O)c2c1O[C@@H](c1ccc(O)c(O)c1)[C@H](O)C2" reads 16.5% (inactive)

activity change, negative = inhibition recorded for this compound, "c1ccc([C@H](c2cccc3c2ccc2ccccc23)[C@H](c2ccccc2)c2cccc3c2ccc2ccccc23)cc1" , is 15.9% (inactive)
